system.name: T1, human Kell glycoprotein, k form (KEL2) (human, UniProt P23276 1-732)
T1 construct: whole, on cells; On human k/k or K-k+ RBCs; also called k antigen
T1 sequence (looked up): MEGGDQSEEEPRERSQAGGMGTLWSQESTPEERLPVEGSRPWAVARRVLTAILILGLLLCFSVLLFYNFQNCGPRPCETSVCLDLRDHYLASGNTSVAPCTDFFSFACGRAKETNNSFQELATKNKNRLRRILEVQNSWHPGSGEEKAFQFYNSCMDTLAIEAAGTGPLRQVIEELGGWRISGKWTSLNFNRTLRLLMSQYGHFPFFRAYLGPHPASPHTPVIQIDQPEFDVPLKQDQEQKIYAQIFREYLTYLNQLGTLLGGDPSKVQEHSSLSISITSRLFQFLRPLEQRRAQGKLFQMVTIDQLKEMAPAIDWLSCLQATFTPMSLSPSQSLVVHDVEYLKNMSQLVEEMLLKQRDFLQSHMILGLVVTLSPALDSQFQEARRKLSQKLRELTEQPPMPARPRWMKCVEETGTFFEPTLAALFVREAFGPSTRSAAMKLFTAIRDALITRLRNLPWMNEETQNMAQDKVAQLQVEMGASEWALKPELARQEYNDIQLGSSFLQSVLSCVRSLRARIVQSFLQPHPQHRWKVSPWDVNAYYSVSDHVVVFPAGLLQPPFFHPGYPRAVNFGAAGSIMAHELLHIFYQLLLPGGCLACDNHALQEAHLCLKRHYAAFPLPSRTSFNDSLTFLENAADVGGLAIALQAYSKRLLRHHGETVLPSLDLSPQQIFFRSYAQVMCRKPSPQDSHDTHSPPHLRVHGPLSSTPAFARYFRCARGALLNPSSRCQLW
test.method.notes: flow cytometry on human K-k+ RBCs
measurement.name: binding result

>  <binder>
PUMA 1 human IgG3-12 isoallotype (antibody, Isoallotype named in CLM-00007; not shown: human IgG3 heavy chain constant region, isoallotype IGHG3*12; human kappa light chain constant region (vector pFUSE2-CLIg-hk)) heavy: EVQLQQSGPELVKPGASVKMSCKASGYTFTDYYMKWVKQSHGKSLEWIGDLNPNNGDTFYNQKFKGKATLTVDKSSSTAYIQLNSLTSEDSAVYYCAREAGSSFGSSCNYWGQGTTLTVS light: SVVMTQTPKFLLVSAGDRVTITCKASQTVSKDVAWYQQQPGQSPKLLIYYASNRYTGVPDRFTGSGYGTDFTFTISTVQAEDLAVYFCQQDYSSPYTFGGGTKLEIK

>  <result>
no binding

$$$$
>  <binder>
PUMA 1 human IgG3-08 isoallotype (antibody, Isoallotype named in CLM-00007; not shown: human IgG3 heavy chain constant region, isoallotype IGHG3*08; human kappa light chain constant region (vector pFUSE2-CLIg-hk)) heavy: EVQLQQSGPELVKPGASVKMSCKASGYTFTDYYMKWVKQSHGKSLEWIGDLNPNNGDTFYNQKFKGKATLTVDKSSSTAYIQLNSLTSEDSAVYYCAREAGSSFGSSCNYWGQGTTLTVS light: SVVMTQTPKFLLVSAGDRVTITCKASQTVSKDVAWYQQQPGQSPKLLIYYASNRYTGVPDRFTGSGYGTDFTFTISTVQAEDLAVYFCQQDYSSPYTFGGGTKLEIK

>  <result>
no binding

$$$$
